Data credit: ChEMBL document CHEMBL1136226

Target: Serotonin 3 (5-HT3) receptor (Rattus norvegicus, UniProt P35563+Q9JJ16)
Sequence (P35563 whole entry): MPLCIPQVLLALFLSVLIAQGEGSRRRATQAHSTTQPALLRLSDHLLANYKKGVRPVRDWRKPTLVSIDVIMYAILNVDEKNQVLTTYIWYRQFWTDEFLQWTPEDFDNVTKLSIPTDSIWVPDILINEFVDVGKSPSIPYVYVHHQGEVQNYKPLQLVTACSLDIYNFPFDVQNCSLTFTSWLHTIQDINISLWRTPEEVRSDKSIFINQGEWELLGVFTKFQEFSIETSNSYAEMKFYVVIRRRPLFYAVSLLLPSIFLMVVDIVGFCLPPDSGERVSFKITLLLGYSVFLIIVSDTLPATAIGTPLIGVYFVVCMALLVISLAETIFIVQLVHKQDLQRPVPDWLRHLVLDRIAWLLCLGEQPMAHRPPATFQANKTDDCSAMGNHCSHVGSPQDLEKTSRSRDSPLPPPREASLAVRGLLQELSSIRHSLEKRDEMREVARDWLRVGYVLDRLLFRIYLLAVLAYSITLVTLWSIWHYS
Sequence (Q9JJ16 whole entry): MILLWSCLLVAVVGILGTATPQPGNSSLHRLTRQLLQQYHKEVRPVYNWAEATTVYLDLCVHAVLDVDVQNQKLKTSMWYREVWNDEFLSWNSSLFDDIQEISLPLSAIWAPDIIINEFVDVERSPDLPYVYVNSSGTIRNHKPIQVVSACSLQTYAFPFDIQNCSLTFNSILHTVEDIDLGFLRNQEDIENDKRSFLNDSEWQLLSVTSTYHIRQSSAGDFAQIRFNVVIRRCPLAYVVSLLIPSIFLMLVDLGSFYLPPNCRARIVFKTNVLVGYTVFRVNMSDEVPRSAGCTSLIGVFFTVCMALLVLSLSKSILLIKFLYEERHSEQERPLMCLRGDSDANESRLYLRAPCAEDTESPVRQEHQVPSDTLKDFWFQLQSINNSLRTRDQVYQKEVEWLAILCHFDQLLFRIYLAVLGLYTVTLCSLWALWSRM
Assay: Binding affinity for 5-HT3 receptor by displacement of [3H]-LY 278584 in rat cerebral cortex membranes
measurement type: Ki (nM)
The figure you give is taken to be in nM; do not add the unit.

Reported Ki for CCCCOc1ccccc1N1CCN(Cc2nc3c(C(=O)NC4CN5CCC4CC5)cccc3[nH]2)CC1 (stereo unspecified) : what is it?
15.1

Consider the compound O=C(NC1CN2CCC1CC2)c1cccc2nc(CN3CCN(c4cccc(C(F)(F)F)c4)CC3)[nH]c12 (stereo unspecified) and give its measured Ki.
23.9

I am curious: what Ki value has been reported for O=C(NC1CN2CCC1CC2)c1cccc2[nH]c(CN3CCN(c4cccc(Cl)c4)CC3)nc12 (stereo unspecified) ?
18.3

Looking for the measured Ki of CC(C)Oc1ccccc1N1CCN(Cc2nc3cccc(C(=O)NC4CN5CCC4CC5)c3[nH]2)CC1 (stereo unspecified) , can you help?
62.1

Entry COc1ccccc1N1CCN(Cc2nc3cccc(C(=O)NC4CN5CCC4CC5)c3[nH]2)CC1 (stereo unspecified) has what Ki?
10.3

Quick one: Ki for O=C(NC1CN2CCC1CC2)c1cccc2[nH]c(CN3CCN(c4ccc5c(c4)OCO5)CC3)nc12 (stereo unspecified) ?
24

Bench note: what Ki did O=C(NC1CN2CCC1CC2)c1cccc2[nH]c(CN3CCN(c4cccc5ccccc45)CC3)nc12 (stereo unspecified) show?
32.5

Given CCCOc1ccccc1N1CCN(Cc2nc3c(C(=O)NC4CN5CCC4CC5)cccc3[nH]2)CC1 (stereo unspecified) , state its recorded Ki.
24.6

Tell me the measured Ki of O=C(NC1CN2CCC1CC2)c1cccc2nc(CN3CCN(c4ccccc4)CC3)[nH]c12 (stereo unspecified) , please.
23.1

Which Ki value is on record for CCOc1ccccc1N1CCN(Cc2nc3c(C(=O)NC4CN5CCC4CC5)cccc3[nH]2)CC1 (stereo unspecified) ?
27.2
